Test: PK of formulations with varying concentrations of LD-Tyr and CD (Example 16)
Format: in vivo, domestic pig
Test Context: female, pig, plasma, sc, 2700 mg/day, analyte LD-Tyr; LD-Tyr/CD 30/0.5 % w/v, daily dose 2700/45 mg; 18-hour continuous SC infusion; n = 5
Where a SMILES comes first, the peptide text is derived from it. [ ]: non-standard residue; d: D form. Dopa = N[C@@H](Cc1ccc(O)c(O)c1)C(=O)O
Measured Quantity: AUC(0-t) (ng·h/mL)
I only need the number, in ng·h/mL, no unit after it.

What measured AUC(0-t) goes with N[C@@H](Cc1ccc(O)c(O)c1)C(=O)N[C@@H](Cc1ccc(O)cc1)C(=O)O [LD-Tyr] (H-[Dopa]-Tyr-OH) ?
5450

---

Test: PK of LD following 18-hr SC administration of LD-Tyr in a formulation comprising ethanol (Example 22)
Type: in vivo, domestic pig
Test Context: pig, plasma, 2700 mg; analyte LD-Tyr; LD-Tyr/CD daily dose 2700/117 mg; 18-hr continuous SC, formulation comprising ethanol; n = 5
Where a SMILES comes first, the peptide text is derived from it. [ ]: non-standard residue; d: D form. Dopa = N[C@@H](Cc1ccc(O)c(O)c1)C(=O)O
Measured Quantity: Tmax (h)
Your answer should be a plain number; it is taken to be in h.

What value of Tmax has been reported for the following compound? N[C@@H](Cc1ccc(O)c(O)c1)C(=O)N[C@@H](Cc1ccc(O)cc1)C(=O)O [LD-Tyr] (H-[Dopa]-Tyr-OH)
14

---

Test: PK of LD following 18-hr SC administration of LD-Tyr in a formulation comprising ethanol (Example 22)
Type: in vivo, domestic pig
Test Context: pig, plasma, 5400 mg; analyte LD-Tyr; LD-Tyr/CD daily dose 5400/234 mg; 18-hr continuous SC, formulation comprising ethanol; n = 3
Where a SMILES comes first, the peptide text is derived from it. [ ]: non-standard residue; d: D form. Dopa = N[C@@H](Cc1ccc(O)c(O)c1)C(=O)O
Measured Quantity: AUC(0-t) (ng·h/mL)
Numbers only here, please. The scale is ng·h/mL.

Find the recorded AUC(0-t) belonging to N[C@@H](Cc1ccc(O)c(O)c1)C(=O)N[C@@H](Cc1ccc(O)cc1)C(=O)O [LD-Tyr] (H-[Dopa]-Tyr-OH) and report it.
21200

---

Test: PK of formulations with varying concentrations of LD-Tyr and CD (Example 16)
Assay type: in vivo, domestic pig
Test Context: female, pig, plasma, sc, 2640 mg/day, analyte LD-Tyr; LD-Tyr/CD 44/1 % w/v, daily dose 2640/60 mg; 18-hour continuous SC infusion; n = 4
Where a SMILES comes first, the peptide text is derived from it. [ ]: non-standard residue; d: D form. Dopa = N[C@@H](Cc1ccc(O)c(O)c1)C(=O)O
Measured Quantity: AUC(0-t) (ng·h/mL)
Give the number; ng·h/mL is assumed, so skip it.

Name the recorded AUC(0-t) for N[C@@H](Cc1ccc(O)c(O)c1)C(=O)N[C@@H](Cc1ccc(O)cc1)C(=O)O [LD-Tyr] (H-[Dopa]-Tyr-OH) .
8130

---

Test: Evaluation of solubility in water
Assay type: physicochemical
Test Context: thermodynamic from solid; water, shaken at 25° C. for 24 hours
Measured Quantity: solubility at 24 h (mg/mL)
Give just the number in mg/mL; leave the unit off.

So what's the measured solubility at 24 h for this one? `C[C@H](N)C(=O)N[C@@H](Cc1ccc(OP(=O)(O)O)c(O)c1)C(=O)O`
15.6

// provenance: patent US20240207410A1
